- protocol_summary: Antioxidant activity assessed as DPPH radical scavenging activity after 30 min
- Format: physicochemical
- condition_parameters: DPPH radical solution
endpoint_name: pIC50
Scale note: pIC50 = -log10(concentration in M).

input_smiles	pIC50
COc1c(-c2ccc(O)c(O)c2)oc2cc(OCCN3CCCCC3)cc(O)c2c1=O.Cl	4.68
COc1c(-c2cc(O)c(O)c(O)c2)oc2cc(O)cc(OCCN3CCCC3)c2c1=O	4.57
CCN(CC)CCOc1cc(O)cc2oc(-c3cc(O)c(O)c(O)c3)c(OC)c(=O)c12	4.66

Recorded result, COc1c(-c2cc(O)c(O)c(O)c2)oc2cc(OCCN3CCCC3)cc(O)c2c1=O , pIC50: 4.77

Recorded result, COc1c(-c2cc(O)c(O)c(O)c2)oc2cc(OCCN3CCCCC3)cc(O)c2c1=O , pIC50: 4.58

Recorded result, COc1c(-c2ccc(O)c(O)c2)oc2cc(O)cc(O)c2c1=O , pIC50: 4.85

These entries and their values trace back to ChEMBL document CHEMBL3593184.
